Parameter α-human koff: see the listing below.
Target: T1, human α-CGRP (Homo sapiens, UniProt P06881)
T1 construct: 1-37 (WT); purchased; host or cells: synthetic peptide
T1 sequence (P06881 83-119 limits assumed): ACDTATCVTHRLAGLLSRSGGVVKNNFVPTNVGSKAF
Test: Biacore affinity of antibody G1 Fab and variants to human α-CGRP
Assay type: binding
Settings: 37° C., Fab, screening mode unless underlined
Express it in s⁻¹; write the number only.

M74: G1 variant: L1 R28N,T30G; L2 L56S; H2 E54K,A57S; HC-FW3 L99T,A100V (antibody, V domains shown) VH: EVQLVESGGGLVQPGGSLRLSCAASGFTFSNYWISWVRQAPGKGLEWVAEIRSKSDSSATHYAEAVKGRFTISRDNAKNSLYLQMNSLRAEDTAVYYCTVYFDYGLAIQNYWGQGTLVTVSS VL: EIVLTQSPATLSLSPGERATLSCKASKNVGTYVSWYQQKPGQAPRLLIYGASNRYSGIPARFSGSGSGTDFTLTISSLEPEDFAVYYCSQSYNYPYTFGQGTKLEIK
0.000597
M48: G1 variant: L1 R28N; L2 G50A,L56T; H2 E54K,A57N,S58L; HC-FW3 L99T,A100V (antibody, V domains shown) VH: EVQLVESGGGLVQPGGSLRLSCAASGFTFSNYWISWVRQAPGKGLEWVAEIRSKSDNLATHYAEAVKGRFTISRDNAKNSLYLQMNSLRAEDTAVYYCTVYFDYGLAIQNYWGQGTLVTVSS VL: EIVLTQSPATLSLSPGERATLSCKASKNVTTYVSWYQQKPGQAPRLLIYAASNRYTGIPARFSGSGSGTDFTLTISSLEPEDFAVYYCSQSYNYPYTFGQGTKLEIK
0.000842
M64: G1 variant: L1 R28N,T30G; L2 G50A; H2 E54K,A57N,S58V; HC-FW3 L99T,A100V (antibody, V domains shown) VH: EVQLVESGGGLVQPGGSLRLSCAASGFTFSNYWISWVRQAPGKGLEWVAEIRSKSDNVATHYAEAVKGRFTISRDNAKNSLYLQMNSLRAEDTAVYYCTVYFDYGLAIQNYWGQGTLVTVSS VL: EIVLTQSPATLSLSPGERATLSCKASKNVGTYVSWYQQKPGQAPRLLIYAASNRYLGIPARFSGSGSGTDFTLTISSLEPEDFAVYYCSQSYNYPYTFGQGTKLEIK
0.00132

Prompt: Any idea what its α-human koff is? The molecule is M69: G1 variant: L1 R28N,T30G; L2 L56I; H2 E54K,A57N,S58E; HC-FW3 L99T,A100V (antibody, V domains shown) VH: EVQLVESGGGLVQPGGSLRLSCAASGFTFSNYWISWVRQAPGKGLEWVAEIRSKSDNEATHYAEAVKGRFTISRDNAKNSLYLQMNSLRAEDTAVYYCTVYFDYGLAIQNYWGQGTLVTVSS VL: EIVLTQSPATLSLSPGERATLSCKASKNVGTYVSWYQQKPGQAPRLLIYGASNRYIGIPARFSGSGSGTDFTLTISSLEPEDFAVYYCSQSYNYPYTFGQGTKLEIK
Completion: 0.000733
